# test.target: GABA-A receptor; anion channel
# test.name: Inhibition of [3H]flunitrazepam [3H]FNZ) binding to GABA-A Benzodiazepine receptor of synaptosomal membranes from rat hippocampus
assay.metric: pKi
// returns pKi (minus log10 of molar concentration), number only

Measured pKi of O=c1cc(-c2cccc([N+](=O)[O-])c2)oc2ccc(Br)cc12 : 8.02

* * *

# test.target: GABA-A receptor; anion channel
# test.name: Inhibition of [3H]flunitrazepam [3H]FNZ) binding to GABA-A Benzodiazepine receptor of synaptosomal membranes from rat striatum
assay.metric: Ki

Ki reading for O=c1cc(-c2cccc([N+](=O)[O-])c2)oc2ccc(Br)cc12 : 9.8 nM
